Entries and their Intrinsic activity values follow.
- TESTED TARGET: Hypoxia-inducible factor prolyl hydroxylase (Homo sapiens, UniProt Q96KS0+Q9NXG6+Q9GZT9+Q9H6Z9)
- Sequence (Q96KS0 whole entry, looked up): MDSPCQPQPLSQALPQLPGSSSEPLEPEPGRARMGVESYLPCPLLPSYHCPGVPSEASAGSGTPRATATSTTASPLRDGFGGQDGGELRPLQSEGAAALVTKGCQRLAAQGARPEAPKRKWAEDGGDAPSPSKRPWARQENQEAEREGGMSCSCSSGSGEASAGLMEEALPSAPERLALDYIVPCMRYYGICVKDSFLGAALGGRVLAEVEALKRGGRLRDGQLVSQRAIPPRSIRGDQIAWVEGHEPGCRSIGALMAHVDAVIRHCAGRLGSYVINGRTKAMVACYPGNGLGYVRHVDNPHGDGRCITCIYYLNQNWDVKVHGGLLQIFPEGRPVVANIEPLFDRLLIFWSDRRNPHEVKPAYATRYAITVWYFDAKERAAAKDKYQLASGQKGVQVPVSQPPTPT
- Sequence (Q9GZT9 whole entry, looked up): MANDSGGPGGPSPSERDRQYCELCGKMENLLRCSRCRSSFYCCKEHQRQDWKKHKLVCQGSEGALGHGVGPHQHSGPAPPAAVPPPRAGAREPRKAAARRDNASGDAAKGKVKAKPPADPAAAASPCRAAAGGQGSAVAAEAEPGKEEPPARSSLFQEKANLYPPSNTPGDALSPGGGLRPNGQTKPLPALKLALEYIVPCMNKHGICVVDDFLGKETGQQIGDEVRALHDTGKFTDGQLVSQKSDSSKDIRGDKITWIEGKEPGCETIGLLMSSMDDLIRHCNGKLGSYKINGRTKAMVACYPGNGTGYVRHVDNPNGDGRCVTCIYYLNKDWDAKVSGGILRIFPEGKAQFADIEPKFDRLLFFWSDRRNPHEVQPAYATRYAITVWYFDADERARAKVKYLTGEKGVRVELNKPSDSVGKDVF
- Sequence (Q9H6Z9 whole entry, looked up): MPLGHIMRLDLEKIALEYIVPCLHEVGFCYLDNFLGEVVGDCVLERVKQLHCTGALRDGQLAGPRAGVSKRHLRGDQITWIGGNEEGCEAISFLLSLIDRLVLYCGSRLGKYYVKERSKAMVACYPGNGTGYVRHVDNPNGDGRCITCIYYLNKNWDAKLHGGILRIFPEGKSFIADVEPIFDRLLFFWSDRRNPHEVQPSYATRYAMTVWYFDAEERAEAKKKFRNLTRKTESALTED
- Sequence (Q9NXG6 whole entry, looked up): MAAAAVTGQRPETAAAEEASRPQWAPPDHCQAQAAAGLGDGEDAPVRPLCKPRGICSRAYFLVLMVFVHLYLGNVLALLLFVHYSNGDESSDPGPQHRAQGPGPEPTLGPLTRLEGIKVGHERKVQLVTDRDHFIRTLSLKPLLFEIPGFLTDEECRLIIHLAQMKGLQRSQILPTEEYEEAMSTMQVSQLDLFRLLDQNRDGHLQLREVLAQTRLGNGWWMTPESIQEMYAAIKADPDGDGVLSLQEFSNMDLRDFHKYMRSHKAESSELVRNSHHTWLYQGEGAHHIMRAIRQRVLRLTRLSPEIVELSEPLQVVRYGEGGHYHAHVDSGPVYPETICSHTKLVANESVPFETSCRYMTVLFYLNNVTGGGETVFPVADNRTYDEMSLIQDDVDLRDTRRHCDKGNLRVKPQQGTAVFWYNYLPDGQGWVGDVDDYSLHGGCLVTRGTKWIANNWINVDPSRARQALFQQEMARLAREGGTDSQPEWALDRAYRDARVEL
- EXPERIMENT NOTES: Inhibition of PHD (unknown origin) expressed in mouse NIH/3T3 cells harboring HRE-driven luciferase gene assessed as transactivation of HIF1alpha after 6 hrs by luciferase reporter gene assay relative to deferoxamine
- Type: cell-based
The answer should be written as a number, with no unit following it.

MOLECULE	Intrinsic activity
C=C(C)[C@@H]1CC[C@]2(C)[C@H](CC=C3[C@@H]4CC(C)(C)CC[C@]4(C(=O)OC)CC[C@]32C)[C@@]1(C)CCC(=O)NO	1.19
CC1(C)CC[C@]2(C(=O)NO)CC[C@]3(C)C(=CC[C@@H]4[C@@]5(C)CCC(=O)OC(C)(C)[C@@H]5CC[C@]43C)[C@@H]2C1	2.2

[Q] Recorded Intrinsic activity of C=C(C)[C@@H]1CC[C@]2(C(=O)NO)CC[C@]3(C)C(CC[C@@H]4[C@@]5(C)CC=CC(C)(C)[C@@H]5CC[C@]43C)[C@H]12 (stereo partly drawn) , please.
[A] 0.48

Where these numbers come from: ChEMBL document CHEMBL4411266
